- Assay target: human RORgammaT-Ligand Binding Domain (LBD) (Homo sapiens (Human), UniProt P51449)
- Sequence (P51449 269-508): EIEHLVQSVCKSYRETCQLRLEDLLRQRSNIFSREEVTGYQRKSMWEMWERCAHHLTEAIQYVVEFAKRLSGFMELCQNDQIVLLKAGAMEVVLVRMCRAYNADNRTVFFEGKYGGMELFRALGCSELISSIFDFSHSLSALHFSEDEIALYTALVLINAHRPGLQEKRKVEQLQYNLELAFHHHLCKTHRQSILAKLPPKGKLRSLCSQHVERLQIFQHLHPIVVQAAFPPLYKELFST
Quantity kind: pIC50
Interpret pIC50 as the negative base-10 log of the concentration measured in mol/L.

Query: Quick check: pIC50 of CC(=O)NC[C@H]1CN(S(=O)(=O)c2ccc(F)cc2)c2cc(NC(=O)OC(C3CCCCC3)C(F)(F)F)ccc2O1 (stereo partly shown) [Example 23D] ?
Response: 6.95
